Source: patent US20230066011A1

# IC50 measurements, system: human GST-CLK1 (Homo sapiens)
# Sequence (P49759 129-484 limits assumed): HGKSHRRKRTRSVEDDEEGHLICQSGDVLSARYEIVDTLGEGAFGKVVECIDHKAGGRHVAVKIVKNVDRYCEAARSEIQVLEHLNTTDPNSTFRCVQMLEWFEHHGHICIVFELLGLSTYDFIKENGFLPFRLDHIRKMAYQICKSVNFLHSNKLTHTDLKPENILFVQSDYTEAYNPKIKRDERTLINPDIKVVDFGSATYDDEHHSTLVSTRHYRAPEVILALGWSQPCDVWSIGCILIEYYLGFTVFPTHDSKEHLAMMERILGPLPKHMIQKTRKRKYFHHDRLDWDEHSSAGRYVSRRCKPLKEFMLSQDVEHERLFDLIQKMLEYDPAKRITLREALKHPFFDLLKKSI

Before answering, review these 3 worked examples.
>>> measured("O=C(c1ccc(Nc2nc(NC3CCCCC3)c3c(C(F)(F)F)c[nH]c3n2)c2c1OCCO2)N1CCN(C2COC2)CC1")
"301 to 1000 nM"
>>> measured("CC[C@H](C)Nc1nc(Nc2ccc(S(=O)(=O)N3CCC(N4CCOCC4)CC3)cc2OC)nc2[nH]ccc12")
"301 to 1000 nM"
>>> measured("COc1cc(S(=O)(=O)N2CCOCC2)ccc1Nc1nc(NC2CCC2)c2c(C#N)c[nH]c2n1")
"301 to 1000 nM"

## Input Give me measured IC50, please, for this compound: "C=CCNc1nc(Nc2ccc(S(=O)(=O)N3CCOCC3)cc2OC)nc2[nH]cc(C#N)c12"
## Output 301 to 1000 nM

## Input Indicate its recorded IC50; the compound in question is "COc1cc(S(C)(=O)=O)ccc1Nc1nc(NC(C)C)c2c(C#N)c[nH]c2n1"
## Output 301 to 1000 nM
